system: plasma; experiment: Determination of anticoagulatory activity: activated partial thromboplastin time (aPTT) in plasma; format: biochemical, human; conditions: concentration of test substance which brings about a 1.5-fold extension of the aPTT, C.K. Prest kit, 37° C.
Where a name gives a salt, the structure may show the parent alone.
Returns one of Satisfied or Not satisfied; Satisfied when Concentration for 1.5-fold aPTT extension is >= 0.1 µmol/L.

Hi team, for COC(=O)c1ccc(-c2ccc(C[C@H](NC(=O)[C@H]3CC[C@H](CN)CC3)C(=O)Nc3ccc(-c4nn[nH]n4)cc3)cc2)c(Cl)c1.Cl [Example 11] , is the recorded Concentration for 1.5-fold aPTT extension at or above 0.1 µmol/L?
Satisfied

Hi team, for CN(C)C1CCC(NS(=O)(=O)c2ccc(-c3ccc(C[C@H](NC(=O)[C@H]4CC[C@H](CN)CC4)C(=O)Nc4ccc5[nH]c(=O)[nH]c5c4)cc3)c(C(F)(F)F)c2)CC1 (stereo partly drawn) [Example 28, hydrochloride] , is the recorded Concentration for 1.5-fold aPTT extension at or above 0.1 µmol/L?
Not satisfied

Hi team, for CC(=O)Nc1ccc(-c2ccc(C[C@H](NC(=O)[C@H]3CC[C@H](CN)CC3)C(=O)Nc3ccc(-c4nn[nH]n4)cc3)cc2)cc1F [Example 26, hydrochloride] , is the recorded Concentration for 1.5-fold aPTT extension at or above 0.1 µmol/L?
Satisfied

Hi team, for NC[C@H]1CC[C@H](C(=O)N[C@@H](Cc2ccc(-c3ccc(S(=O)(=O)NCCO)cc3)cc2)C(=O)Nc2ccc(-c3nnc(Cl)[nH]3)cc2)CC1 [Example 19, hydrochloride] , is the recorded Concentration for 1.5-fold aPTT extension at or above 0.1 µmol/L?
Satisfied

Hi team, for Cc1cc(S(=O)(=O)N2CCCC2)ccc1-c1ccc(C[C@H](NC(=O)[C@H]2CC[C@H](CN)CC2)C(=O)Nc2ccc3c(=O)[nH][nH]c3c2)cc1 [Example 15, hydrochloride] , is the recorded Concentration for 1.5-fold aPTT extension at or above 0.1 µmol/L?
Not satisfied

Hi team, for Cc1cc(S(=O)(=O)N[C@@H]2CCNC2)ccc1-c1ccc(C[C@H](NC(=O)[C@H]2CC[C@H](CN)CC2)C(=O)Nc2ccc(-c3nn[nH]n3)cc2)cc1 [Example 16, hydrochloride] , is the recorded Concentration for 1.5-fold aPTT extension at or above 0.1 µmol/L?
Satisfied

Hi team, for Cc1cc(S(=O)(=O)N(C)C)ccc1-c1ccc(C[C@H](NC(=O)[C@H]2CC[C@H](CN)CC2)C(=O)Nc2ccc(-c3nn[nH]n3)c(F)c2)cc1 [Example 24, hydrochloride] , is the recorded Concentration for 1.5-fold aPTT extension at or above 0.1 µmol/L?
Satisfied

Hi team, for Cc1cc(C#N)ccc1-c1ccc(C[C@H](NC(=O)[C@H]2CC[C@H](CN)CC2)C(=O)Nc2ccc(-c3nn[nH]n3)cc2)cc1 [Example 23, hydrochloride] , is the recorded Concentration for 1.5-fold aPTT extension at or above 0.1 µmol/L?
Satisfied

Hi team, for NC[C@H]1CC[C@H](C(=O)N[C@@H](Cc2ccc(-c3ccc(S(=O)(=O)NC4CCNCC4)cc3C(F)(F)F)cc2)C(=O)Nc2ccc(-c3nn[nH]n3)cc2)CC1 [Example 8, hydrochloride] , is the recorded Concentration for 1.5-fold aPTT extension at or above 0.1 µmol/L?
Not satisfied

Hi team, for CS(=O)(=O)c1ccc(-c2ccc(C[C@H](NC(=O)[C@H]3CC[C@H](CN)CC3)C(=O)Nc3ccc(-c4nn[nH]n4)cc3)cc2)c(C(F)(F)F)c1 [Example 21, hydrochloride] , is the recorded Concentration for 1.5-fold aPTT extension at or above 0.1 µmol/L?
Satisfied

Hi team, for CCN(CC)S(=O)(=O)c1ccc(-c2ccc(C[C@H](NC(=O)[C@H]3CC[C@H](CN)CC3)C(=O)Nc3ccc4c(=O)[nH][nH]c4c3)cc2)c(C)c1 [Example 17, hydrochloride] , is the recorded Concentration for 1.5-fold aPTT extension at or above 0.1 µmol/L?
Satisfied

Hi team, for Cc1cc(S(=O)(=O)N(C)C)ccc1-c1ccc(C[C@H](NC(=O)[C@H]2CC[C@H](CN)CC2)C(=O)Nc2ccc3c(=O)[nH][nH]c3c2)cc1 [Example 13, hydrochloride] , is the recorded Concentration for 1.5-fold aPTT extension at or above 0.1 µmol/L?
Not satisfied

Hi team, for NC[C@H]1CC[C@H](C(=O)N[C@@H](Cc2ccc(-c3ccc(N4CCOCC4=O)cc3)cc2)C(=O)Nc2ccc(-c3nn[nH]n3)cc2)CC1 [Example 25, hydrochloride] , is the recorded Concentration for 1.5-fold aPTT extension at or above 0.1 µmol/L?
Satisfied

###

target: human factor XIa (Homo sapiens, UniProt P03951); construct: purchased Kordia; assay: Measurement of FXIa inhibition (fluorogenic peptide substrate Boc-Glu(OBzl)-Ala-Arg-AMC); format: biochemical; conditions: factor XIa from Kordia, 15 min preincubation, 30 min at 22° C., fluorescence; read-out: IC50
Sequence (P03951 388-625 limits assumed): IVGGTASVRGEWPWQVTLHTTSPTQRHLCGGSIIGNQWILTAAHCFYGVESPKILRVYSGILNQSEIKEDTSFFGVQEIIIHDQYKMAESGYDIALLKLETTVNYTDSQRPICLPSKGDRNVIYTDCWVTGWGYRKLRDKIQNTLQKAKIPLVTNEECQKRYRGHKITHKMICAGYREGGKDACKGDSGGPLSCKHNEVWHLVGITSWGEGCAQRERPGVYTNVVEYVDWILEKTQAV
Sequence (P03951 19-387 partner limits assumed): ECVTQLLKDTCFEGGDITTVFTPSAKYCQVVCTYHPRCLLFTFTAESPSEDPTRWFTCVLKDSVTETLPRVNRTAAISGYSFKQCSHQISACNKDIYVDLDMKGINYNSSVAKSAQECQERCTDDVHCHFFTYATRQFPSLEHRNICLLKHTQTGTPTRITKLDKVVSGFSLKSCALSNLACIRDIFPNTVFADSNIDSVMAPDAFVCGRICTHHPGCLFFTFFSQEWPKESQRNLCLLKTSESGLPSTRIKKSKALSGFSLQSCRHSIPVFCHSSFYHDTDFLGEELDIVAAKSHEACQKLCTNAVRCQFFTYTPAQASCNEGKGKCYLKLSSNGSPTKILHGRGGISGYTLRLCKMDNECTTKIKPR
Structures can show the parent of a compound that is named as a salt.
Exercise: state measured IC50 for each of the molecules provided.
Express your answer in nM, writing the number without its unit.

Record Cc1cc(S(=O)(=O)N[C@@H]2CCNC2)ccc1-c1ccc(C[C@H](NC(=O)[C@H]2CC[C@H](CN)CC2)C(=O)Nc2ccc(-c3nn[nH]n3)cc2)cc1 [Example 16, hydrochloride] . Reported IC50: 1.3

Record Cc1cc(S(=O)(=O)NC2CCNC(C)C2)ccc1-c1ccc(C[C@H](NC(=O)[C@H]2CC[C@H](CN)CC2)C(=O)Nc2ccc(-c3nn[nH]n3)cc2)cc1 (some centres unmarked) [Example 10, hydrochloride] . Reported IC50: 1.1

Record CS(=O)(=O)c1ccc(-c2ccc(C[C@H](NC(=O)[C@H]3CC[C@H](CN)CC3)C(=O)Nc3ccc(-c4nn[nH]n4)cc3)cc2)c(C(F)(F)F)c1 [Example 21, hydrochloride] . Reported IC50: 0.9

Record Cc1cc(C#N)ccc1-c1ccc(C[C@H](NC(=O)[C@H]2CC[C@H](CN)CC2)C(=O)Nc2ccc(-c3nn[nH]n3)cc2)cc1 [Example 23, hydrochloride] . Reported IC50: 1.1

Record COC(=O)c1ccc(-c2ccc(C[C@H](NC(=O)[C@H]3CC[C@H](CN)CC3)C(=O)Nc3ccc(-c4nn[nH]n4)cc3)cc2)cc1 [Example 7, hydrochloride] . Reported IC50: 3.6

###

Molecular target: human factor XIa (Homo sapiens, UniProt P03951)
Construct: purchased Kordia
Experiment: Measurement of FXIa inhibition (fluorogenic peptide substrate Boc-Glu(OBzl)-Ala-Arg-AMC)
Assay type: biochemical
Procedure: a.1) Measurement of FXIa Inhibition The factor XIa inhibition of the substances according to the invention is determined using a biochemical test system which utilizes the reaction of a peptidic factor XIa substrate to determine the enzymatic activity of human factor XIa. Here, factor XIa cleaves from the peptic factor XIa substrate the C-terminal aminomethylcoumarin (AMC), the fluorescence of which is measured. The determinations are carried out in microtitre plates. […]
Counter-ions that a name gives are not always drawn.
Metric: IC50 (nM)
Express your answer in nM, writing the number without its unit.

Record NC[C@H]1CC[C@H](C(=O)N[C@@H](Cc2ccc(-c3ccc(N4CCOCC4)cc3)cc2)C(=O)Nc2ccc(-c3nn[nH]n3)cc2)CC1 [Example 5, hydrochloride] . Reported IC50: 5.7
